test system: hexobarbital-induced anesthesia in mice; design: species or system male ddY mice; details: mouse, in vivo
Structures can show the parent of a compound that is named as a salt.
Please note: label 1 applies when the percent increase of hexobarbital-induced anesthesia in mice is 20% or greater, and label 0 applies otherwise.

{"compound": "CN1CCC(OC(c2ccccc2)c2ccccc2)CC1 [Reference compound A, diphenylpyraline hydrochloride, reference compound]", "discrete-label": "label 1"}
{"compound": "CCc1ccc(C(OC2CCN(CCCCCC(=O)O)CC2)c2ccccc2)cc1.Cl (racemic) [Example 77]", "discrete-label": "label 1"}
{"compound": "Cc1ccc(C(OC2CCN(CCCCCC(=O)O)CC2)c2ccccc2)cc1.Cl (single isomer, unassigned; (-)) [Example 126]", "discrete-label": "label 0"}
{"compound": "COC(=O)CCCCCN1CCC(OC(c2ccccc2)c2ccc(C)cc2)CC1.Cl (racemic) [Example 1]", "discrete-label": "label 0"}
{"compound": "Cc1ccc(C(OC2CCN(CCCCCC(=O)O)CC2)c2ccccc2)cc1.Cl (racemic) [Example 64]", "discrete-label": "label 0"}
{"compound": "Cl.O=C(O)CCCN1CCC(OC(c2ccccc2)c2ccc(F)cc2)CC1 (racemic) [Example 115]", "discrete-label": "label 1"}
{"compound": "COc1ccc(C(OC2CCN(CCCC(=O)O)CC2)c2ccccc2)cc1.Cl (racemic) [Example 87]", "discrete-label": "label 0"}

* * *

tested on: hexobarbital-induced anesthesia in mice; design: species or system male ddY mice; details: mouse, in vivo
result-type: the percent increase of hexobarbital-induced anesthesia in mice (%)

{"compound": "Cl.O=C(O)CCN1CCC(OC(c2ccccc2)c2ccccc2)CC1", "target-system": "hexobarbital-induced anesthesia in mice", "value-observed": 29}
{"compound": "Cc1ccc(C(OC2CCN(CCC(=O)O)CC2)c2ccccc2)cc1.Cl (racemic)", "target-system": "hexobarbital-induced anesthesia in mice", "value-observed": -2}
{"compound": "Cc1ccc(C(OC2CCN(CCCCCCCC(=O)O)CC2)c2ccccc2)cc1.Cl (racemic)", "target-system": "hexobarbital-induced anesthesia in mice", "value-observed": 21}
{"compound": "Cc1ccc(C(OC2CCN(CCCCC(=O)O)CC2)c2ccccc2)cc1.Cl (racemic)", "target-system": "hexobarbital-induced anesthesia in mice", "value-observed": 12}
{"compound": "Cl.O=C(O)CCCCN1CCC(OC(c2ccc(F)cc2)c2ccc(F)cc2)CC1", "target-system": "hexobarbital-induced anesthesia in mice", "value-observed": -12}
{"compound": "Cc1ccc(C(OC2CCN(CCCCCCC(=O)O)CC2)c2ccccc2)cc1.Cl (racemic)", "target-system": "hexobarbital-induced anesthesia in mice", "value-observed": 2}
{"compound": "CCOC(=O)Oc1ccc(C=CC=CC(=O)NCCN2CCC(OC(c3ccccc3)c3ccccc3)CC2)cc1OC [Reference compound B, reference compound]", "target-system": "hexobarbital-induced anesthesia in mice", "value-observed": 35}
{"compound": "Cl.O=C(O)CCCN1CCC(OC(c2ccccc2)c2ccccc2Cl)CC1 (racemic)", "target-system": "hexobarbital-induced anesthesia in mice", "value-observed": 29}
{"compound": "Cc1ccc(C(OC2CCN(CCCC(=O)O)CC2)c2ccccc2)cc1.Cl (racemic)", "target-system": "hexobarbital-induced anesthesia in mice", "value-observed": 3}
{"compound": "Cl.O=C(O)CCCCN1CCC(OC(c2ccccc2)c2ccc(F)cc2)CC1 (racemic)", "target-system": "hexobarbital-induced anesthesia in mice", "value-observed": 31}
{"compound": "Cc1ccc(C(OC2CCN(CCCCCC(=O)O)CC2)c2ccccc2)cc1.Cl (single isomer, unassigned; (+)) [Example 125]", "target-system": "hexobarbital-induced anesthesia in mice", "value-observed": 29}
{"compound": "COC(=O)CCCCCN1CCC(OC(c2ccccc2)c2ccc(C)cc2)CC1.Cl (single isomer, unassigned; (+)) [Example 62]", "target-system": "hexobarbital-induced anesthesia in mice", "value-observed": 29}
{"compound": "COc1ccc(C(OC2CCN(CCCCCC(=O)O)CC2)c2ccccc2)cc1.Cl (racemic)", "target-system": "hexobarbital-induced anesthesia in mice", "value-observed": 20}
{"compound": "COc1ccc(C(OC2CCN(CCC(=O)O)CC2)c2ccccc2)cc1.Cl (racemic)", "target-system": "hexobarbital-induced anesthesia in mice", "value-observed": 4}

Origin of the recorded values: patent US5153207A
